This section presents molecules with their documented pIC50 values.
# study-target: human recombinant renin (Homo sapiens)
# Sequence (P00797 67-406): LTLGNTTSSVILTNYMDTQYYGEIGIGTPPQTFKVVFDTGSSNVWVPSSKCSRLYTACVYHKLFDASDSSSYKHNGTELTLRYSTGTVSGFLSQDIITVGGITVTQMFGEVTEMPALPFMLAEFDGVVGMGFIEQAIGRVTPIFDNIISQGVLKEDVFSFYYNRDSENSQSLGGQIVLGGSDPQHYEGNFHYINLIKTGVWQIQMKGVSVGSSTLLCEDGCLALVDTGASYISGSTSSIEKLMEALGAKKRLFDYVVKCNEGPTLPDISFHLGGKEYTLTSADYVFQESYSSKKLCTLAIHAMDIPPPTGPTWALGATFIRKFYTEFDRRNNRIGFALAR
# test-method-notes: Inhibition of human recombinant renin (enzymatic in vitro assay, Ang I detected by EIA)
# study-conditions: human recombinant renin 0.16 ng/mL, synthetic human angiotensin(1-14) 0.5 μM, 37° C. for 3 h
pIC50: −log10 of the molar value.

molecule: Cc1c(CN(C(=O)C2=C(c3ccc(CCCOc4c(F)ccc(F)c4Cl)cc3)C[C@@H]3CNC[C@H]2N3)C2CC2)ccnc1OCCCO (racemic)
pIC50: 8.94
--
molecule: Cc1cc(Cl)c(OCCOc2ccc(C3=C(C(=O)N(Cc4ccnc(OCCCO)c4C)C4CC4)[C@H]4CNC[C@@H](C3)N4)cc2)c(Cl)c1 (racemic)
pIC50: 9.31
--
molecule: Cc1c(CN(C(=O)C2=C(c3ccc(CCCOc4c(F)ccc(F)c4Cl)cc3)C[C@@H]3CNC[C@H]2N3)C2CC2)ccnc1OCCO (racemic)
pIC50: 9.09
--
molecule: Cc1cc(Cl)c(OCCOc2ccc(C3=C(C(=O)N(Cc4ccnc(OCCO)c4C)C4CC4)[C@H]4CNC[C@@H](C3)N4)cc2)c(Cl)c1 (racemic)
pIC50: 8.84
